- target system: T1, Human EphA2 (human, UniProt P29317 24-976)
- T1 construct: Endogenous EphA2 in fresh frozen human tumor tissue sections, not a recombinant protein; also called ephrin receptor A2; hEphA2
- procedure details: IHC/IF on frozen human tumor tissue: ANC
measurement name: IHC score
Numbers only.

AB-009815 (antibody, mouse IgG2a, V domains shown, Made on a mouse IgG2a framework) VH: QVQLQQWGAGLLKPSETLSLTCAVYGGSFSDYYWSWIRQPPGKGLEWIGEVNHRGSINYNNYNPSLKSRVTISVDTSKNQFSLKLTSVTAADTAVYYCAKPLRPHCTNGVCYSGDAFDIWGQGTMVTVAS VL: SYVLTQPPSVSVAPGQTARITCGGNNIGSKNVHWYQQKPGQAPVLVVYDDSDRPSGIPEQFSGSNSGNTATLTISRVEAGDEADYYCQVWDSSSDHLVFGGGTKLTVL ... 2

Record IHC score for all entries; do not skip any.
1. AB-009812 (antibody, mouse IgG2a, V domains shown, Made on a mouse IgG2a framework) VH: QVQLQQWGAGLLKPSETLSLTCAVYGGSFSDYYWSWIRQPPGKGLEWIGEVNHSGSINYNNYNPSLKSRVTISVDPSKNQFSLKLTSVTAADTAVYYCAKPLRPHCTNGVCYSGDAFDIWGQGTMVTVAS VL: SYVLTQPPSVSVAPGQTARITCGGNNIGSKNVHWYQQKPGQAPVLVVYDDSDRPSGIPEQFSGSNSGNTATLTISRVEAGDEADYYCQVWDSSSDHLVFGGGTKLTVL
2. AB-009816 (antibody, mouse IgG2a, V domains shown, Made on a mouse IgG2a framework) VH: QVQLQQWGAGLLKPSETLSLTCAVYGGSFSDYYWSWIRQPPGKGLEWIGEVNHRGSINYNNYNPSLKSRVTISVDASKNQFSLKLTSVTAADTAVYYCAKPLRPHCTNGVCYSGDAFDIWGQGTMVTVAS VL: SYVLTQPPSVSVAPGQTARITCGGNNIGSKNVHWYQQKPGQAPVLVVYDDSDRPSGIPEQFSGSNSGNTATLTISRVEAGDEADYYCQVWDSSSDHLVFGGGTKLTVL

1: 2; 2: 2
